Assign composite z-score to each entry below.
Target: Fibroblast growth factor 10 (Homo sapiens) (UniProt O15520)
Sequence (O15520 whole entry, looked up): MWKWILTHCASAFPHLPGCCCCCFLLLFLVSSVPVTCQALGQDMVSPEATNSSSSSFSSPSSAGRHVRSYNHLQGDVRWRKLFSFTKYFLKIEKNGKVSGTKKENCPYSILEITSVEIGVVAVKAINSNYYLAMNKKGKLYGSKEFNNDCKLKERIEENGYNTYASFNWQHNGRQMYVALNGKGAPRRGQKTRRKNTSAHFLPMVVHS
Procedure Summary: FGF10 binders on small-molecule microarrays, primary screen, biochemical, small-molecule microarray, 635 nm fluorescence (AID 1102)
Condition Context: FGF10 binding, fluorescence 635 nm, higher = more signal
Give bare numbers.

Please give composite z-score, item by item, for the list that follows.
1. Cc1ccc(S(=O)(=O)N[C@@H]2COC(=O)CC=C[C@@H](C)[C@H](NS(=O)(=O)c3ccc(C)cc3)COC(=O)[C@H](C)NC(=O)CC=C[C@H]2C)cc1
2. C=CC[C@@H]1C=C[C@H](ON=C[C@@H](NS(=O)(=O)c2ccc(C)cc2)[C@H](C)C=CCC(=O)OC)[C@@H](CO)O1
3. CC(C)(C)N1C(=O)[C@H]2[C@H]3[C@H](O)[C@H](O)CC(=NOC[C@@H](O)COCc4ccco4)[C@@H]3CC[C@H]2C1=O
4. COC(=O)[C@H](C)NC(=O)CCC1CC(OC(=O)NCCc2ccc(F)cc2)CC2(CCCC(COC(=O)NCCOc3ccccc3)O2)O1 (stereo partly drawn)
5. COC(=O)[C@H](C)NC(=O)CCC1CC(OC(=O)NCc2cccc3ccccc23)CC2(CCCC(COC(=O)NCc3cccc(C(F)(F)F)c3)O2)O1 (stereo partly drawn)
6. C=CC[C@@H]1C=C[C@H](ON=C(C)CCN2CCCc3nc(C)c(C)cc32)[C@@H](CO)O1
7. CCN1C(=O)[C@H]2[C@H]3[C@H](O)[C@H](O)CC(=NO[C@@H](C)c4cc(-c5c(C)cc(C)cc5C)no4)[C@@H]3CC[C@H]2C1=O

**A:**
1: -0.0861; 2: 0.0083; 3: 0.249; 4: 0.762; 5: 0.908; 6: 1.01; 7: 0.841

Fill in composite z-score for each of the 2 compounds listed.
1. O=C1CCCC=C1C(O)C1CCCCC1 (stereo not drawn)
2. CC(CCC(=O)OC[C@H]1O[C@H](C#Cc2ccccc2)C=C[C@@H]1Oc1ccc(C)cc1)=NO[C@@H](C)c1cc(-c2c(C)cc(C)cc2C)no1

**A:**
[0.42, -1.43]

List reported composite z-score for each of these compounds:
1. CO[C@H]1COC(=O)[C@H](CCSC)NC(=O)CC=C[C@@H](C)[C@H](OC)COC(=O)[C@@H](OCc2ccccc2)C=C[C@@H]1C
2. C[C@]12CCC3c4ccc(OCC5CO5)cc4CCC3C1CC[C@@H]2O (stereo partly drawn)
3. CC1(C)O[C@H]2OC([C@H](O)CON3C(=O)c4ccccc4C3=O)[C@H](O)[C@H]2O1 (stereo partly drawn)
4. O=C1[C@H]2CCn3c(=O)n(-c4ccccc4)c(=O)n3[C@H]2[C@H](O)[C@@H]2O[C@H]12
5. O=C1[C@H]2[C@H]3[C@H](O)[C@H](O)CC(=NO[C@@H]4O[C@H](CO)[C@@H](O)[C@H](O)[C@H]4O)[C@@H]3CC[C@H]2C(=O)N1C[C@@H]1CCCO1

**A:**
[0.605, 0.457, 0.0612, 0.837, 0.784]

Field: composite z-score. Fill in for each record below.
1. C=CC[C@@H]1C=CC(ON=C(C)C)[C@@H](CO)O1 (stereo partly drawn)
2. C[C@H]1CC[C@H]2C(=O)OC(COc3ccc(C(C)(C)C)cc3)CN2[C@@H]1c1ccc(Br)cc1 (stereo partly drawn)
3. O=C1C2=CC[C@H]3C(=O)N(C[C@@H]4CCCO4)C(=O)[C@H]3[C@H]2[C@H](O)[C@@H]2O[C@H]12
4. COc1ccc(COC(=O)NN=C2C[C@@H](O)[C@@H](O)[C@@H]3[C@@H]4C(=O)N([C@@H](C)c5ccccc5)C(=O)[C@@H]4CC[C@@H]23)cc1
5. CC(=O)OC[C@H]1O[C@H](CC=NOC(C)CN2CCCc3nc(C)c(C)cc32)C=C[C@@H]1OC(C)=O (stereo partly drawn)
6. CO[C@@H]1C=CCC(=O)N[C@@H](C)C(=O)OC[C@@H](OC)[C@H](C)C=CCC(=O)OC[C@H]1C
7. COC(=O)CC=C1c2ccccc2[C@H](OC)[C@H]1C
8. CC(C)[C@@H](OCc1ccccc1)[C@H](C)C=NO[C@H](C)c1cn([C@@H]2COC[C@H]2O)nn1

**A:**
1. -0.766
2. 0.172
3. 0.364
4. 0.132
5. 0.708
6. 0.656
7. 0.0785
8. 0.457

====

Procedure Summary: E. coli growth modulation, two-sided OD650, primary screen, E. coli filamentation project, strain DRC41, 24 h (AID 1093);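 further: MC1000 strain lacking acrAB efflux and sulA so SOS filamentation is blocked; test concentration not given here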
Condition Context: OD650, 24 h, higher = more signal, called active from +8 up or from −8 down
Measurement Kind: z-score
Numbers only.

Some compounds with recorded z-score:
O=C(NN=C1C[C@@H](O)[C@@H](O)[C@@H]2[C@@H]3C(=O)N(Cc4ccccc4)C(=O)[C@@H]3CC[C@H]12)OCc1ccccc1	0.399
CC(=O)OC[C@H]1O[C@H](CC=NOC(C)CN2CCCc3nc(C)c(C)cc32)C=C[C@@H]1OC(C)=O (some centres undefined)	1.14
COC(=O)[C@@H]1CC[C@H](C)[C@@H](c2ccc(C)cc2)N1C(=O)c1ccc(C=NOC[C@@H](O)[C@H]2O[C@@H]3OC(C)(C)O[C@@H]3[C@H]2O)cc1	1.6
C=CC[C@@H]1C=C[C@H](ON=C[C@@H](NS(=O)(=O)c2ccc(C)cc2)[C@H](C)C=CCC(=O)OC)[C@@H](CO)O1	0.354
C[C@H]1CC[C@H]2C(=O)N[C@H](Cc3ccccc3)C(=O)N2[C@@H]1c1ccccc1	0.805
COC(=O)[C@H](Cc1ccccc1)NC(=O)[C@@H](C)CO	-0.503
COC(=O)[C@H](C)NC(=O)CCC1CC(OC(=O)NCc2cccc3ccccc23)CC2(CCCC(COC(=O)NCCOc3ccccc3)O2)O1 (some centres undefined)	0.544
CCOC(=O)CCN1C(=O)[C@H]2[C@@H]3C(=CC[C@H]2C1=O)C(=O)[C@H]1O[C@H]1[C@H]3O	-0.518
COc1ccc(COC(=O)NN=C2C[C@@H](O)[C@@H](O)[C@@H]3[C@@H]4C(=O)N(Cc5ccccc5)C(=O)[C@@H]4CC[C@@H]23)cc1	0.555
COC(=O)CC=C[C@@H](C)[C@@H](C=NOC(C)CN1CCCCc2nc(C)c(C)cc21)NS(=O)(=O)c1ccc(C)cc1 (some centres undefined)	0.86

Report z-score for each item below.
1. CCN1C(=O)[C@H]2[C@H]3[C@H](O)[C@H](O)CC(=NO[C@H](C)c4cn([C@@H]5COC[C@H]5O)nn4)[C@@H]3CC[C@H]2C1=O
2. COC(=O)[C@H](C)NC(=O)CCC1CC(OC(=O)NCc2cccc3ccccc23)CC2(CCCC(COC(=O)NCCCN3CCCC3=O)O2)O1 (some centres undefined)
3. CCOC(=O)CCN1C(=O)[C@H]2[C@H]3[C@H](O)[C@H](O)CC(=NO[C@@H]4O[C@H](CO)[C@@H](O)[C@H](O)[C@H]4O)[C@H]3CC[C@H]2C1=O
4. CC(C)[C@@H](OCc1ccccc1)[C@H](C)CON=C1[C@H]2CCn3c(=O)n(-c4ccccc4)c(=O)n3[C@H]2[C@H](O)[C@@H]2O[C@H]12

**A:**
[0.445, -1.25, 0.389, 0.222]

====

Procedure Summary: yeast growth modulation, basal conditions, primary screen, YJM789 clinical isolate, OD600, 24 h (AID 1089);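 further: growth of clinical yeast isolate S. cerevisiae YJM 789 seeded 1000 cells per well; test concentration not given here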
Condition Context: S. cerevisiae YJM789 growth, higher = more signal, called active from +8 up or from −8 down
z-score below -0.05 gives condition not met; z-score at or above it gives condition met.

COc1ccc(COC(=O)NN=C2C[C@@H](O)[C@@H](O)[C@@H]3[C@@H]4C(=O)N(c5cccc(Oc6ccccc6)c5)C(=O)[C@@H]4CC[C@H]23)cc1	condition met
CC(C)CN1CCc2nc(-c3ccccc3)c3c(c2C1)CO[C@@H](C)C3	condition not met
COc1ccc(O[C@H]2C=C[C@@H](c3ccccc3)O[C@@H]2COC(=O)NCc2cccc3ccccc23)cc1	condition met
O=C1[C@H]2[C@H]3[C@H](O)[C@H](O)CC(=NOC[C@@H](O)COCc4ccco4)[C@@H]3CC[C@H]2C(=O)N1Cc1ccc2c(c1)OCO2	condition met
COc1ccc(O[C@H]2C=C[C@@H](c3ccccc3)O[C@@H]2CON=C2c3cc(OC)ccc3O[C@H](c3cccc(OC)c3)[C@H]2O)cc1	condition not met

**Q:** Could you please find out whether CO[C@@H]1COC(=O)[C@H](COCc2ccccc2)NC(=O)CC=C[C@@H](C)[C@H](OC)COC(=O)[C@@H](C)NC(=O)CC=C[C@H]1C has z-score that meets -0.05 or exceeds it?
**A:** condition met

**Q:** For this molecule, is measured z-score -0.05 or higher? CC1(C)O[C@H]2O[C@H]([C@H](O)CON=C3[C@H]4CCn5c(=O)n(-c6ccccc6)c(=O)n5[C@H]4[C@H](O)[C@@H]4O[C@H]34)[C@H](O)[C@H]2O1
**A:** condition not met
